Measured values drawn from patent US20220401557A1 for this set.

Each item that follows carries a reported kon.
- target of assay: T1, CD3εδ heterodimer (Homo sapiens (Human), UniProt P07766 22-126; P04234 22-100)
- T1 construct: also called CD3ε8
- T1 sequence (P07766 other isoform, or with tags, fused parts or gaps mutant limits assumed, chain 1 of 2): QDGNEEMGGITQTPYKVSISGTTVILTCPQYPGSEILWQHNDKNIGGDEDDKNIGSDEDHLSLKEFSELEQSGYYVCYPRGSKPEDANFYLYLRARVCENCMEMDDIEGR
- T1 sequence (P04234 other isoform, or with tags, fused parts or gaps mutant limits assumed, chain 2 of 2): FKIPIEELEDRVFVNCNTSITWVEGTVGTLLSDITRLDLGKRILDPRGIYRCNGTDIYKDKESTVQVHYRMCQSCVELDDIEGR
- protocol text: SPR, Biacore T200; antibody captured on Protein G (CM3 chip), CD3εδ heterodimer as analyte, single cycle kinetics, 37 C
Answer in M⁻¹ s⁻¹, number only, no unit symbol.

- AN121H-F760mnP17/GLS3000-k0 (AN121) (antibody, human IgG1, kappa, N297A, V domains shown) VH: QVQLVESGGGLVQPGRSLRLSCAASGFTFSNAWMHWVRQAPGKGLEWVAQIKDKANGYNAYYAESVKGRFTISRDDSKNSIYLQMNSLKTEDTAVYYCRYVHYTTYAGFSYKFGVDAWGQGTTVTVSS VL: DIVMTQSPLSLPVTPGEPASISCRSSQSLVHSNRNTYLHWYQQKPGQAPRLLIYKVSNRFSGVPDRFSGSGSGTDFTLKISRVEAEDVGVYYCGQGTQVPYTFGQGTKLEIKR: 74700

stdin: Name the recorded kon for CE115HA000-F760mnP17/GLS3000-k0 (Humanized anti-CD3 antibody) (antibody, human IgG1, kappa, N297A, V domains shown) VH: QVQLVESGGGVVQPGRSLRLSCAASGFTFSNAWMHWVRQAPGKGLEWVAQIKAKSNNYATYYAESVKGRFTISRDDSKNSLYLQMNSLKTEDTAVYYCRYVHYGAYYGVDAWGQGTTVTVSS VL: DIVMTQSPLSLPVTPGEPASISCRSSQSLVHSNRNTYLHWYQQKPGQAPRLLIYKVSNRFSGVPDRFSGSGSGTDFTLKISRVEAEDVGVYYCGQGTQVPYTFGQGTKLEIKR .
stdout: 51800

stdin: Moving on to the next binder: CE115VH-F760mnP17/GLS3000-k0 (Combination of rat anti-CD3 antibody and human anti-CD3 antibody) (antibody, human IgG1, kappa, N297A, V domains shown) VH: EVQLVETGGSLVQPGKSLKLTCATSGFTFSNAWMHWVRQSPEKQLEWVAQIKAKSNNYATYYAESVKGRFTISRDDSKSNIYLQMNSLKEEDTAVYYCRYVHYGAYYGVDAWGQGTSVTVSS VL: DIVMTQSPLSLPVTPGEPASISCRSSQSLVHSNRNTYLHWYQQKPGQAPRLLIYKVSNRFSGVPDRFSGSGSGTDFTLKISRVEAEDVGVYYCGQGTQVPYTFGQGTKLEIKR
stdout: 47300

stdin: Moving on to the next binder: CE115VH-F760mnP17/rCE115VL-k0 (Rat anti-CD3 antibody) (antibody, human IgG1, kappa, N297A, V domains shown) VH: EVQLVETGGSLVQPGKSLKLTCATSGFTFSNAWMHWVRQSPEKQLEWVAQIKAKSNNYATYYAESVKGRFTISRDDSKSNIYLQMNSLKEEDTAVYYCRYVHYGAYYGVDAWGQGTSVTVSS VL: DVVMTQTPVSMSVSLGGQVSISCRSSQSLVHNNGNTYVSWYIQKPSQSPQLLIYKVSNRFSGISDRFSGSGSGTDFTLKISRVEPDDLGVYYCGQGTQDPYTFGAGTKLELKR
stdout: 40400
